Every entry's value here was drawn from patent US9951094B2.

Below, each entry is listed with its recorded Fluorescence Quantum Yield φF.
experimental_protocol: Absolute fluorescence quantum yield in solvents
Format: physicochemical
condition_set: cyclohexane; apparatus C11347-01
Please reply with the value in numeric form only.

{"columns": ["compound", "Fluorescence Quantum Yield φF"],
 "data": [
  ["O=P1(c2ccccc2)C(c2cc3c4c(c2)CCCN4CCC3)=Cc2cc3ccccc3cc21 (stereo not shown)", 0.90],
  ["O=P1(c2ccccc2)C(c2ccc(N(c3ccccc3)c3ccccc3)cc2)=Cc2ccc3ccccc3c21 (stereo not shown)", 0.92],
  ["O=P1(c2ccccc2)C2=C(c3ccccc31)C(c1ccccc1)(c1ccccc1)c1cc(N(c3ccccc3)c3ccccc3)ccc12 (stereo not shown)", 0.88]
]}

Proceeding to the next compound to report its Fluorescence Quantum Yield φF.
Q. Tell me the measured Fluorescence Quantum Yield φF of O=P1(c2ccccc2)C(c2ccc(N(c3ccccc3)c3ccccc3)cc2)=Cc2cc3ccccc3cc21 (stereo not shown) , please.
A. 0.90

----------
experimental_protocol: UV-Vis absorption spectra in solvents
Type: physicochemical
condition_set: CH2Cl2
assay_readout: Molar Absorption Coefficient ϵ

{"columns": ["compound", "Molar Absorption Coefficient ϵ"],
 "data": [
  ["O=P1(c2ccccc2)C(c2ccc(N(c3ccccc3)c3ccccc3)cc2)=Cc2ccccc21 (stereo not shown)", "1.75 10^4M^−1 cm^−1"],
  ["O=P1(c2ccccc2)C(c2ccc(N(c3ccccc3)c3ccccc3)cc2)=Cc2cc3ccccc3cc21 (stereo not shown)", "3.66 10^4M^−1 cm^−1"],
  ["CN(C)c1ccc(C2=Cc3ccccc3P2(=O)c2ccccc2)cc1 (stereo not shown)", "1.71 10^4M^−1 cm^−1"]
]}

Proceeding to the next compound to report its Molar Absorption Coefficient ϵ.
Q. Tell me the measured Molar Absorption Coefficient ϵ of O=P1(c2ccccc2)C(c2ccc(N(c3ccccc3)c3ccccc3)cc2)=C(c2ccccc2)c2ccccc21 (stereo not shown) , please.
A. 1.76 10^4M^−1 cm^−1

----------
experimental_protocol: Fluorescence spectra in solvents
Type: physicochemical
condition_set: EtOH
assay_readout: Emission Maximum Wavelength λ em (nm)
Write the number in nm without appending the unit.

{"columns": ["compound", "value_observed"],
 "data": [
  ["O=P1(c2ccccc2)C2=C(c3ccccc31)C(c1ccccc1)(c1ccccc1)c1cc(N(c3ccccc3)c3ccccc3)ccc12 (stereo not shown)", 589],
  ["CN(C)c1ccc(C2=Cc3ccccc3P2(=O)c2ccccc2)cc1 (stereo not shown)", 565],
  ["O=P1(c2ccccc2)C(c2ccc(N(c3ccccc3)c3ccccc3)cc2)=Cc2ccccc21 (stereo not shown)", 565]
]}

Q. Tell me the measured Emission Maximum Wavelength λ em of O=P1(c2ccccc2)C(c2cc3c4c(c2)CCCN4CCC3)=Cc2cc3ccccc3cc21 (stereo not shown) , please.
A. 583

----------
Below, each entry is listed with its recorded Absorption Maximum Wavelength λ max.
experimental_protocol: UV-Vis absorption spectra in solvents
Type: physicochemical
condition_set: CH3CN
Field: value (include unit after the number)

Please review the entries below; each comes with its answer.
{"columns": ["molecule", "assay_readout", "value_observed"],
 "data": [
  ["O=P1(c2ccccc2)C(c2cc3c4c(c2)CCCN4CCC3)=Cc2cc3ccccc3cc21 (stereo not shown)", "Absorption Maximum Wavelength λ max", "425 nm"],
  ["O=P1(c2ccccc2)C(c2ccc(N(c3ccccc3)c3ccccc3)cc2)=Cc2cc3ccccc3cc21 (stereo not shown)", "Absorption Maximum Wavelength λ max", "405 nm"],
  ["CN(C)c1ccc(C2=Cc3ccccc3P2(=O)c2ccccc2)cc1 (stereo not shown)", "Absorption Maximum Wavelength λ max", "408 nm"],
  ["O=P1(c2ccccc2)C(c2ccc(N(c3ccccc3)c3ccccc3)cc2)=C(c2ccccc2)c2ccccc21 (stereo not shown)", "Absorption Maximum Wavelength λ max", "404 nm"],
  ["O=P1(c2ccccc2)C2=C(c3ccccc31)C(c1ccccc1)(c1ccccc1)c1cc(N(c3ccccc3)c3ccccc3)ccc12 (stereo not shown)", "Absorption Maximum Wavelength λ max", "428 nm"]
]}

Q. Tell me the measured Absorption Maximum Wavelength λ max of O=P1(c2ccccc2)C(c2ccc(N(c3ccccc3)c3ccccc3)cc2)=Cc2ccc3ccccc3c21 (stereo not shown) , please.
A. 439 nm

Q. Tell me the measured Absorption Maximum Wavelength λ max of O=P1(c2ccccc2)C(c2ccc(N(c3ccccc3)c3ccccc3)cc2)=Cc2ccccc21 (stereo not shown) , please.
A. 406 nm

----------
experimental_protocol: UV-Vis absorption spectra in solvents
Assay type: physicochemical
condition_set: EtOH
assay_readout: Absorption Maximum Wavelength λ max (nm)
Write the number in nm without appending the unit.

Please review the entries below; each comes with its answer.
{"columns": ["compound", "assay_readout", "unit", "value_observed"],
 "data": [
  ["O=P1(c2ccccc2)C(c2ccc(N(c3ccccc3)c3ccccc3)cc2)=Cc2ccc3ccccc3c21 (stereo not shown) [Compound 6d]", "Absorption Maximum Wavelength λ max", "nm", 448],
  ["O=P1(c2ccccc2)C(c2ccc(N(c3ccccc3)c3ccccc3)cc2)=Cc2ccccc21 (stereo not shown) [Compound 2]", "Absorption Maximum Wavelength λ max", "nm", 416],
  ["O=P1(c2ccccc2)C(c2ccc(N(c3ccccc3)c3ccccc3)cc2)=C(c2ccccc2)c2ccccc21 (stereo not shown) [Compound 1]", "Absorption Maximum Wavelength λ max", "nm", 417],
  ["CN(C)c1ccc(C2=Cc3ccccc3P2(=O)c2ccccc2)cc1 (stereo not shown) [Compound 3]", "Absorption Maximum Wavelength λ max", "nm", 415],
  ["O=P1(c2ccccc2)C(c2cc3c4c(c2)CCCN4CCC3)=Cc2cc3ccccc3cc21 (stereo not shown) [Compound 6c]", "Absorption Maximum Wavelength λ max", "nm", 429],
  ["O=P1(c2ccccc2)C(c2ccc(N(c3ccccc3)c3ccccc3)cc2)=Cc2cc3ccccc3cc21 (stereo not shown) [Compound 6b]", "Absorption Maximum Wavelength λ max", "nm", 413]
]}

Proceeding to the next compound to report its Absorption Maximum Wavelength λ max.
Q. Tell me the measured Absorption Maximum Wavelength λ max of O=P1(c2ccccc2)C2=C(c3ccccc31)C(c1ccccc1)(c1ccccc1)c1cc(N(c3ccccc3)c3ccccc3)ccc12 (stereo not shown) [Compound 7a] , please.
A. 439

----------
Below, each entry is listed with its recorded Molar Absorption Coefficient ϵ.
experimental_protocol: UV-Vis absorption spectra in solvents
Format: physicochemical
condition_set: EtOH

Please review the entries below; each comes with its answer.
{"columns": ["compound", "Molar Absorption Coefficient ϵ"],
 "data": [
  ["O=P1(c2ccccc2)C(c2ccc(N(c3ccccc3)c3ccccc3)cc2)=C(c2ccccc2)c2ccccc21 (stereo not drawn) [Compound 1]", "1.68 10^4M^−1 cm^−1"],
  ["CN(C)c1ccc(C2=Cc3ccccc3P2(=O)c2ccccc2)cc1 (stereo not drawn) [Compound 3]", "1.69 10^4M^−1 cm^−1"]
]}

Proceeding to the next compound to report its Molar Absorption Coefficient ϵ.
Q. Tell me the measured Molar Absorption Coefficient ϵ of O=P1(c2ccccc2)C(c2ccc(N(c3ccccc3)c3ccccc3)cc2)=Cc2ccc3ccccc3c21 (stereo not drawn) [Compound 6d] , please.
A. 1.94 10^4M^−1 cm^−1

----------
Below, each entry is listed with its recorded Emission Maximum Wavelength λ em.
experimental_protocol: Fluorescence spectra in solvents
Type: physicochemical
condition_set: CH2Cl2
Field: value (include unit after the number)

{"columns": ["molecule", "Emission Maximum Wavelength λ em"],
 "data": [
  ["O=P1(c2ccccc2)C(c2ccc(N(c3ccccc3)c3ccccc3)cc2)=C(c2ccccc2)c2ccccc21 (stereo not shown)", "561 nm"],
  ["O=P1(c2ccccc2)C(c2ccc(N(c3ccccc3)c3ccccc3)cc2)=Cc2ccccc21 (stereo not shown)", "543 nm"]
]}

Q. Tell me the measured Emission Maximum Wavelength λ em of O=P1(c2ccccc2)C(c2ccc(N(c3ccccc3)c3ccccc3)cc2)=Cc2cc3ccccc3cc21 (stereo not shown) , please.
A. 533 nm

Q. Tell me the measured Emission Maximum Wavelength λ em of CN(C)c1ccc(C2=Cc3ccccc3P2(=O)c2ccccc2)cc1 (stereo not shown) , please.
A. 532 nm

----------
experimental_protocol: UV-Vis absorption spectra in solvents
Format: physicochemical
condition_set: cyclohexane
assay_readout: Absorption Maximum Wavelength λ max (nm)
Write the number in nm without appending the unit.

Please review the entries below; each comes with its answer.
{"columns": ["molecule", "assay_readout", "value_observed"],
 "data": [
  ["CN(C)c1ccc(C2=Cc3ccccc3P2(=O)c2ccccc2)cc1 (stereo not shown)", "Absorption Maximum Wavelength λ max", 401],
  ["O=P1(c2ccccc2)C(c2ccc(N(c3ccccc3)c3ccccc3)cc2)=Cc2ccc3ccccc3c21 (stereo not shown)", "Absorption Maximum Wavelength λ max", 440]
]}

Q. Tell me the measured Absorption Maximum Wavelength λ max of O=P1(c2ccccc2)C(c2ccc(N(c3ccccc3)c3ccccc3)cc2)=C(c2ccccc2)c2ccccc21 (stereo not shown) , please.
A. 412

Q. Tell me the measured Absorption Maximum Wavelength λ max of O=P1(c2ccccc2)C(c2cc3c4c(c2)CCCN4CCC3)=Cc2cc3ccccc3cc21 (stereo not shown) , please.
A. 420

Q. Tell me the measured Absorption Maximum Wavelength λ max of O=P1(c2ccccc2)C(c2ccc(N(c3ccccc3)c3ccccc3)cc2)=Cc2ccccc21 (stereo not shown) , please.
A. 410

Q. Tell me the measured Absorption Maximum Wavelength λ max of O=P1(c2ccccc2)C2=C(c3ccccc31)C(c1ccccc1)(c1ccccc1)c1cc(N(c3ccccc3)c3ccccc3)ccc12 (stereo not shown) , please.
A. 424

Q. Tell me the measured Absorption Maximum Wavelength λ max of O=P1(c2ccccc2)C(c2ccc(N(c3ccccc3)c3ccccc3)cc2)=Cc2cc3ccccc3cc21 (stereo not shown) , please.
A. 409
